- tested on: FAD-linked sulfhydryl oxidase ALR (Homo sapiens)
- test description: ALR-catalysed DTT oxidation blockers – biochemical, H2O2 detection, HRP-luminol luminescence, single point, primary screen (AID 485317)
- applied conditions: purified ALR, hits give high values, concentration not given here
Hit rate of the full screen: of about 290,000 compounds, about 11,000 (3.8%) were called active. The sample holds actives, similar compounds and a random draw of the others, so the mix is not that of the screen.
test readout: inhibition (%)
Note: unit % is implicit; provide only the numeric part.

# input Name the recorded inhibition of the compound listed here: Cc1ccc(S(=O)(=O)N2CCCCC2)cc1NC(=O)[C@@H]1CCCN1C(=O)c1cccs1
# output -6.24

# input For NC(=O)c1ccsc1NC(=O)COC(=O)Cc1n[nH]c(=O)c2ccccc12 , write its inhibition.
# output -7.95

# input Consider the compound CC(C)(C)OC(=O)C[C@@H]1C/C=C\C[C@@H](CC(=O)N(CCO)Cc2ccccc2)C(=O)N[C@H](Cc2ccccc2)COC1=O and give its recorded inhibition.
# output -5.13

# input Given O=C(Nc1ccccc1)Nc1ccccc1C(=O)NCc1ccco1 , respond with its inhibition.
# output -2.76

# input Could you please provide reported inhibition for Cc1cccc(Nc2ccccc2C(=O)NCc2ccco2)c1C ? Thanks!
# output 98.6

* * *

- tested on: FAD-linked sulfhydryl oxidase ALR (Homo sapiens) (UniProt P55789)
- Sequence (P55789 whole entry, looked up): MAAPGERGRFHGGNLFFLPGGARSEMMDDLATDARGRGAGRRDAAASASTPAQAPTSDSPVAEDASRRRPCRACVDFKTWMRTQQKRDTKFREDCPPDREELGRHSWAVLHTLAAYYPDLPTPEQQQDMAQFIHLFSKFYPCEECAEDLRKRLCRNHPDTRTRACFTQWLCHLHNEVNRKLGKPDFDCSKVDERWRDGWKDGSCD
- test description: ALR-catalysed DTT oxidation blockers – biochemical, H2O2 detection, HRP-luminol luminescence, single point, primary screen (AID 485317)
- applied conditions: purified ALR, hits give high values, concentration not given here
In all, about 290,000 compounds went through this assay and about 11,000 (3.8%) were called active. For the sample, actives were picked, then their nearest neighbours and some compounds at random.
test readout: inhibition (%)
Number only, in %; omit the unit.

# input Note down inhibition recorded for Cc1nc2nc(SCC(=O)Nc3cccc(F)c3)[nH]c2cc1Br
# output -13.2

# input State its inhibition: O=C(COC(=O)CN1C(=O)C2CCCCC2C1=O)Nc1ccc(F)c(F)c1F (stereo unspecified)
# output -5.29

# input Input CC[N+](C)(CC)CCC[n+]1c(-c2ccccc2)c2cc(N)ccc2c2ccc(N)cc21 , output reported inhibition.
# output 90.7

# input Give the value of inhibition reported for the following: COc1ccc(C2(C)ON(c3ccccc3C(F)(F)F)C2=O)cc1 (stereo unspecified)
# output 1.44

# input Please report the measured inhibition for N#Cc1ccc(CN2CCN(CC(=O)Nc3ccccc3C(=O)NC3CC3)CC2)cc1
# output -2.66

# input // fetch inhibition given entry Cc1ccc2nnn(Cc3cccc(C(C)(C)C)c3O)c2c1
# output 14.7

# input Please indicate inhibition recorded for CC/C(C)=N/Nc1nc2sc3c(c2c(=O)[nH]1)CC(C)(C)OC3
# output 15.5

# input Tell me measured inhibition for COc1ccc(N2CCN(C(=O)CNC(=O)c3ccc(C(C)(C)C)cc3)CC2)cc1 please.
# output -2.48

# input Determine from records and report inhibition for COc1ccc2c(c1)C(=O)Nc1cc(Cl)ccc1N2
# output 87.7

# input Consider the compound O=C(COC(=O)c1cccc(Cl)c1)Nc1ccc2[nH]c(=O)[nH]c2c1 and give its recorded inhibition.
# output -0.957

# input Answer with the recorded inhibition of COc1ccc2nc3n(c(=O)c2c1)-c1ccc(Cl)cc1C(=O)NC3Cc1ccccc1 (stereo unspecified) only.
# output -0.323

# input Tell me measured inhibition for Nc1nnc(SCC(=O)Nc2ccc3nc(SCC(=O)Nc4ccccc4)sc3c2)s1 please.
# output -42

# input Output inhibition of O=C1NN(c2ccccc2)C(=O)/C1=C/c1ccc(-c2cccc(C(=O)O)c2)o1
# output 98.7

# input Provide measured inhibition value, entry: O=C(CN1CCN(c2ccccc2O)CC1)NC(=O)NCc1ccccc1
# output 13.1

# input Supply reported inhibition belonging to this compound: CCOC(=O)C1CCN(C(=O)CN2C(=O)NC(C)(c3ccc4cc(OC)ccc4c3)C2=O)CC1 (stereo unspecified)
# output -7.42

# input Report measured inhibition; entry is COc1ccc(N2CCN(C(=O)CCNC(=O)c3ccc(Br)cc3)CC2)cc1
# output -0.657

# input Recall and state the measured inhibition for COC(OC)c1ccnc(SCc2ccccc2Cl)n1 .
# output -8.94

# input Supply measured inhibition of CNS(=O)(=O)c1cccc(C(=O)OCCCC(=O)c2ccccc2)c1 in your reply.
# output 1.28

# input Return value of inhibition for input O=C(C[C@H]1C/C=C\C[C@@H](NC(=O)OCC2c3ccccc3-c3ccccc32)C(=O)O[C@@H](c2ccccc2)CNC1=O)N[C@H](CO)Cc1ccccc1 , no commentary.
# output 0.728

# input Please indicate inhibition recorded for O=C(CSc1nc2[nH]c(=O)[nH]c(=O)c2s1)Nc1cccc(F)c1
# output 98.7

# input Name the recorded inhibition of the compound listed here: COc1cccc(CNC(C)C(=O)Nc2ccc(S(=O)(=O)N3CCCC3)cc2)c1 (stereo unspecified)
# output -0.631
